The measured values listed here are drawn from the METLIN SMRT retention time set (Domingo-Almenara et al. 2019).

Hi there, I'd appreciate the recorded RP-LC retention time for every entry that follows.
Assay: gradient 5% acetonitrile 3 min, to 50% in 2 min, to 85% in 15 min, held 3 min, 100 µL/min
Conditions: column: Zorbax Extend-C18 2.1 x 50 mm; eluents: water / acetonitrile, 0.1% formic acid
One number for each entry, in s.

Reference set (5 entries):
N#CCCN(CCC#N)c1ccc(/C=C2\N=C(c3cc([N+](=O)[O-])ccc3Cl)OC2=O)cc1 = 1010
CCCNC(=O)C1Cc2cc(S(=O)(=O)N3CCCCCC3)ccc2N1C(C)=O (centres undefined) = 744
Cc1ccc(NC(=O)C2CCCN(c3ncnc4c3nc3n4CCCCC3)C2)c(Br)c1 (centres undefined) = 930
CCN1C(=O)C2(CCN(S(=O)(=O)c3ccc(CC(C)C)cc3)CC2)c2ccccc21 = 587
O=C(NC1CCCCCC1)C1CC(=O)N(CCc2c[nH]c3ccc(Cl)cc23)C1 (centres undefined) = 871

# map each molecule to its RP-LC retention time
1. COc1ccc(F)cc1S(=O)(=O)NC1CCc2nnc(C)n2CC1 (centres undefined)
2. CCc1ccccc1NC(=O)C1CCN(S(=O)(=O)c2ccc3c(c2)CCCC(=O)N3)CC1
3. COCCN1C(=O)c2ccccc2C(C(=O)NCCc2ccc(OC)cc2)C12CCCC2 (centres undefined)
4. Cc1ccc(Cn2cc(-c3ccncc3)cc2C(=O)N(C)Cc2ccccc2)cc1
5. CS(=O)(=O)N1CCC(OC2CCN(C(=O)c3ccc(Cl)cc3)CC2)CC1

Ans:
613
757
807
751
767

Hi team, please reply with RP-LC retention time for each item in this list.
1. CCN1C(=O)Cc2ccccc2C1C(=O)NCCOC (centres undefined)
2. CCOC(=O)C1CCN(C(=O)c2cn(-c3cc(N4CCC(C)CC4)ncn3)cn2)CC1

Ans:
[610, 941]

I need RP-LC retention time for every entry listed below, if you could help.
1. O=C(c1ccccc1)N1CCN(c2nc(CN3CCOCC3)cs2)CC1
2. CC(NC(=O)c1ccco1)c1nc(-c2ccc(N3CCCC3)cc2)no1 (centres undefined)

Ans:
[852, 941]

Parameters: items (list). Returns: RP-LC retention time for each item.
1. O=C(Cn1c(=O)oc2ccccc21)N1CCN(c2ccccn2)CC1
2. O=C(Cn1ccc2ccc(N3CCOCC3)nc21)NCc1cccc(Br)c1

Ans:
1: 598; 2: 918
